B1: LCOR (parent)
chain: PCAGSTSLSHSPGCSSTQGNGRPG

# Variants of: B1
# protocol_summary: protein stability index of a GFP-peptide fusion (GPS, HEK-293T) (PSI 1-6); higher = more stable;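 note: lentivirally expressed fusions sorted by FACS into six bins by GFP to DsRed ratio, PSI derived from sequencing read proportions per bin multiplied by bin number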
# assay_conditions: c terminus: a fixed tail appended
Assign class by protein stability index: not lower than 3 means 1; lower than 3 means -1.

Worked cases, answers included:
- mutant_designation: "C14A"
  group: 1
- mutant_designation: "C14M"
  group: 1
- mutant_designation: "P1H"
  group: -1

Proceed to the following item.
Does the reported protein stability index for `G21H` fall at or above the 3 mark?
-1

Source: the supplement of paper PMC10567573
